Reference source for all entries: PubChem BioAssay AID1508600

# protocolDetails: Components of the Cytosolic LPS Sensing Pathway: Gene Identification via Genome-wide siRNA Screen
# recordedConditions: RAW264.7 macrophages, IL-1a HTRF, actives lie on both sides, screened at 100 nM (by protocol), cells primed 5 h with Pam3CSK4 first
# Procedure: Non-canonical inflammasome activation by cytosolic LPS is a critical component of the host response to Gram-negative bacterial infection, however we lack a comprehensive understanding of the cellular processes that control this pathway. […] Lipofectamine RNAiMAX Transfection Reagent ([…]; Invitrogen) was added in […] serum-free, antibiotic-free media to plate wells using a Thermo Scientific Matrix WellMate and Microplate Stacker. […] The plates were read on an EnVision plate reader (PerkinElmer). […]
Among all 53,000 sequences or so, about 3,700 (7%) were called active. This is one part of a sample in which actives are shown more often than they occur.
Rule: t for z-score not less than 0.2, f for anything less.

recordsequence="CGGAUUCACAAGAACACCUTT against Pramel12" classname=f
recordsequence="GGAAUUCGAUGCAUUUGUATT against Il18rap" classname=f
recordsequence="GCAGAUUGUGCAGCUAGCATT against Pax4" classname=t
recordsequence="GCACCAAUUCCCUAACUGGTT against Fam102a" classname=t
recordsequence="GGUGGUAAAUAAUUAAGGATT against Clec14a" classname=t
recordsequence="GGCAUCUUUCAUAAAACCGTT against Atad3aos" classname=f
recordsequence="GCUCACUUGAUUCUGGUAATT against Ifnz" classname=t
recordsequence="GCCAGAACCUGACUUAUAUTT against Mia2" classname=f
recordsequence="CCCAGUUCUGUCCUACUUATT against Efcab6" classname=f
recordsequence="GCUCAGGCAAGACUCAUUGTT against Trim45" classname=f
recordsequence="GGGAGGAAAUGAAUGAAUUTT against Gypc" classname=t
recordsequence="GGACUUUUCAUUUGAAGCATT against Gar1" classname=t
recordsequence="GCACCCUACCUGCUAAUGUTT against Slitrk1" classname=t
recordsequence="CCAAAAAGAUUUGGAUCUCTT against Nr2f6" classname=f
recordsequence="GGAGUUGUGGAAUUCUCUATT against Extl2" classname=f
recordsequence="CCGCUACCAGAUAAACUCGTT against BC053393" classname=t
recordsequence="AAGGUCGUUUACAUGAACATT against Fbxw20" classname=t
recordsequence="GGAACGACAAUAAAGCUUATT against Ninj1" classname=f
recordsequence="CGGCACUGACUUAUUGUUCTT against Olfr574" classname=t
recordsequence="GCUUUAGAUACGUGAUUAGTT against Desi2" classname=f
recordsequence="GCACUUAUGGUUUAGAUGUTT against Prdm8" classname=f
recordsequence="GCAUUCACCGUACGUAUUCTT against Id4" classname=f
recordsequence="GGAGCGUACCAUGAUCGAUTT against Parvb" classname=f
recordsequence="GGCUUUAAGAAUGUAUCGCTT against Dpp3" classname=f
recordsequence="GAUCAUCGGCAUUUUGAACTT against Il4" classname=f

###

# protocolDetails: Components of the Cytosolic LPS Sensing Pathway: Gene Identification via Genome-wide siRNA Screen
# recordedConditions: RAW264.7 macrophages, IL-1a HTRF, actives lie on both sides, screened at 100 nM (by protocol), cells primed 5 h with Pam3CSK4 first
Hit rate of the full screen: of about 53,000 sequences, about 3,700 (7%) were called active.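 The calls were made as follows: active = gene knockdowns whose robust z-score for IL-1 alpha signal is at least 2 or at most -2, so actives lie on both sides; inactive = the rest.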 This excerpt belongs to a sample that is enriched for actives.
Labels: t (active), f (inactive)

recordsequence="GCUGGUGUCGGCAAAUCCUTT against Wnk1" classname=f
recordsequence="GCUAGGUGUUUGAAGCCUCTT against Mixl1" classname=f
recordsequence="GCACCUGGAGUACAUAAAATT against Sh2d1a" classname=f
recordsequence="GGCUUUGAACAGGAAAGACTT against Ube2z" classname=f
recordsequence="CCCAAAACGGUAGCUUAAGTT against Rcc1" classname=f
recordsequence="GGUCCCAUAUACCAGAUCUTT against Slc3a1" classname=f
recordsequence="GGGCAAGAAAGGUGUUUUGTT against Prdx5" classname=f
recordsequence="CCGCUGAAAAUGGAAGUUATT against Mrgprb4" classname=t
recordsequence="GGCCUUAGGAAUCAAGUUGTT against 9530053A07Rik" classname=f
recordsequence="GGAUACGAUUGAACGGCUGTT against Rac3" classname=f
recordsequence="GGAGACAACUGUCAAGCUGTT against Igdcc4" classname=f
recordsequence="GGUGAACUUGAGGUCACACTT against Angpt4" classname=f
recordsequence="GCAAGACCCAAGAGUUACATT against Soat2" classname=t
recordsequence="GGCAAACAUCUGUAUCUAUTT against Golph3" classname=f
recordsequence="CCAAUGCAAUGUUAGCUUUTT against Tas1r3" classname=f
recordsequence="GGAGGGAAUAUGCAAAUAGTT against Ftdc2" classname=t
recordsequence="GCUGAAAGUAUUCAUGUAATT against Sec13" classname=f
recordsequence="GAUUUCUAUACAGCCUAUCTT against Olfr799" classname=f
recordsequence="GGCCAAGAGAAUCUAAAGATT against Strn4" classname=f
recordsequence="GGAUCUUGGAUAAAGUGUGTT against Gpr180" classname=f
recordsequence="GGCUCACAGGACCUAUUUCTT against Col6a6" classname=t
recordsequence="GGAACAUCAUCAACCACUATT against Olfr911-ps1" classname=f
recordsequence="GCUGUUUCCCAGAGAAGAATT against Defb2" classname=f
recordsequence="GGAGACGAGAAACAAACCCTT against Diaph2" classname=f
recordsequence="GGUACCAUCACGUUGUGUATT against M6pr" classname=f
